system: CCRIS mutagenicity, Ames/micronucleus/aberration tests; assay: CCRIS mutagenicity studies; details: Test System: AMES SALMONELLA TYPHIMURIUM; Strain/Indicator: TA98(1,8-DNP); Metabolic Activation: NONE; Method: PREINCUBATION
The source made the active and inactive calls. The rule behind the calls is not given here.
Please answer using one outcome listed in y for active, n for inactive

O=[N+]([O-])c1ccc(CNc2ncnc3nc[nH]c23)cc1 ... n
O=[N+]([O-])c1ccc(Nc2ncnc3nc[nH]c23)cc1 ... n
Nc1nc(-c2ccc([N+](=O)[O-])cc2)nc2c1ncn2-c1ccc([N+](=O)[O-])cc1 ... y

Field: next compound
Challenge: Hi, sorry to bother you, what did the test record for Nc1ncnc2nc(-c3ccc([N+](=O)[O-])cc3)[nH]c12 ?
Response given: y

###

test system: CCRIS mutagenicity, Ames/micronucleus/aberration tests; assay: CCRIS mutagenicity studies; conditions: Test System: AMES SALMONELLA TYPHIMURIUM; Strain/Indicator: TA97; Metabolic Activation: RAT, LIVER, S-9, AROCLOR 1254; Method: PREINCUBATION
Calls of active or inactive are those of the source. How the calls were made is not given here.
Choose one outcome from this list and give only that: active, inactive

Cc1nccc2c1[nH]c1ccccc12 ... inactive

Challenge: Dear colleague, could you share the recorded outcome for O=C(O)CCC(=O)O when you have a moment?
Response given: inactive

Challenge: Could you please tell me the result logged for O=C(O)CC(O)(CC(=O)O)C(=O)O in this assay?
Response given: inactive

Challenge: Recorded test call requested for O=c1[nH]c(=O)n([C@H]2C[C@H](O)[C@@H](CO)O2)cc1CCCCl
Response given: inactive

###

tested on: CCRIS mutagenicity, Ames/micronucleus/aberration tests; assay: CCRIS mutagenicity studies; details: Test System: AMES SALMONELLA TYPHIMURIUM; Strain/Indicator: TA1538; Metabolic Activation: RAT, LIVER, S-9, AROCLOR 1254; Method: STANDARD PLATE
Active and inactive are the calls of the source. No rule for the calls is given here.
Select the matching outcome among Yes (active), No (inactive)

CSCCC(NC(=O)COc1cc(Cl)c(Cl)cc1Cl)C(=O)O (stereo not drawn) ... No
FC(F)(F)c1ccccc1Cl ... No

Challenge: Entry COCCCN : call = ?
Response given: No

Challenge: Dear colleague, could you share the recorded outcome for COc1cc(CNC(=O)CCCCCCC(C)C)ccc1O when you have a moment?
Response given: No

Challenge: # lookup: test call for Nc1cc(CCO)c(N)c([N+](=O)[O-])c1
Response given: Yes

Challenge: Identify the outcome logged in this assay for the compound shown: Nc1ccc(N)c2c1C(=O)c1cccc([N+](=O)[O-])c1C2=O
Response given: Yes

Challenge: Please state the recorded outcome for this compound: CCCCOc1cc(N=Nc2ccccc2)ccc1N=Nc1c(S(=O)(=O)O)cc2ccc(N)cc2c1O
Response given: Yes

Challenge: Tell me the recorded outcome of this test for O=c1c(O)c(C2=CC(O)(CCO)C(O)(CCO)C=C2)oc2c1C(O)=CC(O)(CCO)C2 (stereo not drawn) .
Response given: No

Challenge: Tell me the recorded outcome of this test for Nc1c(N=Nc2ccc(-c3ccc(N=Nc4cc(S(=O)(=O)O)c5ccccc5c4N)cc3)cc2)cc(S(=O)(=O)O)c2ccccc12 .
Response given: No
